Quick reference for abundance fitness among some variants
B1: SH3 and PX domain-containing protein 2B, residues 155 to 209; numbered along this chain, A1X283 (parent)
chain: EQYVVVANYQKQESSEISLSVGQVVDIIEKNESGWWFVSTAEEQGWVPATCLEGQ

variants of: B1; experiment: abundance fitness (aPCA) (normalised: wild type 0, dead -1); higher = more abundant; growth selection in yeast, the domain comes from the species named; conditions: Homo sapiens
# answer = number (no unit)

Past entries and their recorded results:
Y9V | -0.249
Q10L | -0.044
E16D | -0.211
K30I | -0.276

Okay, now this variant:
Output abundance fitness of L52D -0.942
